test: self-splicing fitness, log relative to wild type (ln ratio); higher = more splicing; Tetrahymena group I intron in knt gene, E. coli kanamycin selection, DiMSum; sequences stand for … in CUCUCU…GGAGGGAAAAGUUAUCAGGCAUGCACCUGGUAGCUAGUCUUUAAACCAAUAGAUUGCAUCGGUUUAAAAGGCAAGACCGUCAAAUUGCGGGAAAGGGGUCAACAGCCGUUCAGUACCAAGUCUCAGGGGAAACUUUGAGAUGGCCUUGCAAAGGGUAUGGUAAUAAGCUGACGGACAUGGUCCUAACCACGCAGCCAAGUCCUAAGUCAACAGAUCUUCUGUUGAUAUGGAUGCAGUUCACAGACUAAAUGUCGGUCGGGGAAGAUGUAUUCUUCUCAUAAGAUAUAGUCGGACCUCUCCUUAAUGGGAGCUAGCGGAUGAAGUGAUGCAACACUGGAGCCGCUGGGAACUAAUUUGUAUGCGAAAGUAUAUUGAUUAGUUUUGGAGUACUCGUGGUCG; conditions: 30 °C;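 also: selection with 25 µg/mL kanamycin versus none on LB agar overnight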
Label scheme for self-splicing fitness (ln): lower than -2 is n, -2 and above is y.

// known answers, use as guide
Biopolymer Sequence: AAGCAGCAAUAUUACGCUGG
Category: n
//
Biopolymer Sequence: CCGUAGCAAUAUUACGAAAG
Category: y
//
Biopolymer Sequence: AAGCAGCAAUAUUACGUCAC
Category: n

Query: Does the sequence UAUCAGCAAUAUUACGAUUA have recorded self-splicing fitness (ln) that is -2 or more?
Reply: y

Query: Can GAUAAGCAAUAUUACGCGGC be said to have self-splicing fitness (ln) at or above -2?
Reply: n

Query: Is it the case that AACUAGCAAUAUUACGCGGA has self-splicing fitness (ln) reaching or exceeding -2?
Reply: n

Query: Would you say UCGAAGCAAUAUUACGGAGU shows self-splicing fitness (ln) at minimum -2?
Reply: n

Query: Kindly determine if self-splicing fitness (ln) recorded for CCGGAGCAAUAUUACGAGAC is above or exactly -2.
Reply: n
